Target: RIPK1 (Homo sapiens)
Sequence (Q13546 whole entry): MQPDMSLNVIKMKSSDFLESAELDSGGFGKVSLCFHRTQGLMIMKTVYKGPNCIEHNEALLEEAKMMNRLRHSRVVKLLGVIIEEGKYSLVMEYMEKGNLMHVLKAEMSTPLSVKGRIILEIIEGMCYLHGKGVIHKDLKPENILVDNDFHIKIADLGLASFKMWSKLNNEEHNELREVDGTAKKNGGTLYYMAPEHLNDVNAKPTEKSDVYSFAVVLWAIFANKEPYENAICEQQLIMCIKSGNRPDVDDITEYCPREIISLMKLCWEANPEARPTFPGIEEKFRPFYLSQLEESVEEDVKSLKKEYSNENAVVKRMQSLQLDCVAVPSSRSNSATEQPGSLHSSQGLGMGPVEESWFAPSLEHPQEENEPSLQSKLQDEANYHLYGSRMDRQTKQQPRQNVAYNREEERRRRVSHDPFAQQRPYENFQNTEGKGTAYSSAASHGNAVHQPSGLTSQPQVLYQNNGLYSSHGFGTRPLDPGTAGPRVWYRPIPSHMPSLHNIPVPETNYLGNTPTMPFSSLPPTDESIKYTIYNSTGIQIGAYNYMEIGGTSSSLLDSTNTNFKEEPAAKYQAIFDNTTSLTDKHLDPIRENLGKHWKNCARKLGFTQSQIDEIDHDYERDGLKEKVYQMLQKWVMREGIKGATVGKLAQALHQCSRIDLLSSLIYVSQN
OBSERVATION_TYPE: IC50

Entry `COc1ccccc1-c1n[nH]c2nc(N[C@H]3CC[C@H](NS(=O)(=O)CCC(F)(F)F)CC3)nc(OC)c12` , IC50 reported as ≥ 20 µM

* * *

Molecular target: MET (Homo sapiens, UniProt P08581)
Sequence (P08581 whole entry): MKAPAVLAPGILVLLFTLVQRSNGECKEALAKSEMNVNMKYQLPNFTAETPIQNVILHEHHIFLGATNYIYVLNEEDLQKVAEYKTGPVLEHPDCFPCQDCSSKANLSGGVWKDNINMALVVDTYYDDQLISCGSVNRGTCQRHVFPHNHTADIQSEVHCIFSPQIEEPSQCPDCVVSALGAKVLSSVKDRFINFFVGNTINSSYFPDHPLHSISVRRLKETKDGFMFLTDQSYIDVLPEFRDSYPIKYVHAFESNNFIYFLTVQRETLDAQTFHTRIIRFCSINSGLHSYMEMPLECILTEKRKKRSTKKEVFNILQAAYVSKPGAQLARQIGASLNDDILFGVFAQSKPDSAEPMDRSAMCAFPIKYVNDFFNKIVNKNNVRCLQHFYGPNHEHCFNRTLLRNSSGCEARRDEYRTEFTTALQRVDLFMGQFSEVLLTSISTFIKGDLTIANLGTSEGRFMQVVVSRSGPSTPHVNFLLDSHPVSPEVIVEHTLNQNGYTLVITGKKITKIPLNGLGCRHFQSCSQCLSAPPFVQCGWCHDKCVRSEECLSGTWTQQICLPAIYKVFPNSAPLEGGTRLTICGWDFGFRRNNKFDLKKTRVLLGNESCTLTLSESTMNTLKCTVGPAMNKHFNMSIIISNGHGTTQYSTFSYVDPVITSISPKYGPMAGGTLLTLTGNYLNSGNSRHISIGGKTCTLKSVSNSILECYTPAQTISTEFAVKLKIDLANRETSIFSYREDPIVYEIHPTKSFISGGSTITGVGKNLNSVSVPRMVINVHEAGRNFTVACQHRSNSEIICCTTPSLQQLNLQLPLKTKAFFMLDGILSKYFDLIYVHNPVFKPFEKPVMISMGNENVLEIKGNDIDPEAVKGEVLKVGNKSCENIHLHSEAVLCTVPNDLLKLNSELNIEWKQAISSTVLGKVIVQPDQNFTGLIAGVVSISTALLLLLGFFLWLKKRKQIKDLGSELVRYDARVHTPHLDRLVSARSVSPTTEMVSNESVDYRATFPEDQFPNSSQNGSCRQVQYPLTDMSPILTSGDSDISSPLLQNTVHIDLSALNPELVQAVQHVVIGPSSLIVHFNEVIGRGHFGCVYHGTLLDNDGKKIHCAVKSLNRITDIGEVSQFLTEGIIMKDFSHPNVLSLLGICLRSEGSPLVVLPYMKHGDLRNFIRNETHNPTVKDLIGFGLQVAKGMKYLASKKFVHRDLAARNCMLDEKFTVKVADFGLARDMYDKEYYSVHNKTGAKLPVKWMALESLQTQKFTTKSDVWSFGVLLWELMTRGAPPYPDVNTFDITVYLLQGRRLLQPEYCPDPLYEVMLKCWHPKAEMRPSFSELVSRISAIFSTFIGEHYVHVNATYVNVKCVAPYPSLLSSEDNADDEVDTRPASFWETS
Experiment: biochemical
Design: species or system HEK293/K-562/placenta mixed human extract; Kinobeads chemoproteomic competition binding, quantified by TMT LC-MS/MS, dose response up to 20 uM
pIC50: −log10 of the molar value.
OBSERVATION_TYPE: pIC50

MET (Homo sapiens, UniProt P08581) assay, molecule `COc1ccccc1-c1n[nH]c2nc(N[C@H]3CC[C@H](NS(=O)(=O)CCC(F)(F)F)CC3)nc(OC)c12` , recorded pIC50 = ≤ 4.70

* * *

Target: PDIK1L (Homo sapiens)
Sequence (Q8N165 whole entry): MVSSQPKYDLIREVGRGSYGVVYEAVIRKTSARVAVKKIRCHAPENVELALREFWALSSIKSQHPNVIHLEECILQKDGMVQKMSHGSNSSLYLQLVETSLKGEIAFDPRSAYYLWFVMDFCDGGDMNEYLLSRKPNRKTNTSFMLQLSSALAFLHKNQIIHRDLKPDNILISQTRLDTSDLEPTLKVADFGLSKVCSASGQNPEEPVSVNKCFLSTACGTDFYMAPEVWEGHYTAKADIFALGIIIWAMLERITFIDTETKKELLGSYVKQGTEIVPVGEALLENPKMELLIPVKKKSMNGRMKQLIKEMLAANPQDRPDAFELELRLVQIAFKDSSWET
Assay: biochemical
Design: species or system HEK293/K-562/placenta mixed human extract; Kinobeads chemoproteomic competition binding, quantified by TMT LC-MS/MS, dose response up to 20 uM
OBSERVATION_TYPE: IC50

According to the records, this compound COc1nc(N[C@H]2CC[C@H](NS(=O)(=O)CC(C)C)CC2)nc2[nH]nc(N3CCOC[C@H]3C)c12 [compound 39] displays IC50 of ≥ 20 µM

* * *

Molecular target: PRKAB1 (Homo sapiens, UniProt Q9Y478)
Sequence (Q9Y478 1-270): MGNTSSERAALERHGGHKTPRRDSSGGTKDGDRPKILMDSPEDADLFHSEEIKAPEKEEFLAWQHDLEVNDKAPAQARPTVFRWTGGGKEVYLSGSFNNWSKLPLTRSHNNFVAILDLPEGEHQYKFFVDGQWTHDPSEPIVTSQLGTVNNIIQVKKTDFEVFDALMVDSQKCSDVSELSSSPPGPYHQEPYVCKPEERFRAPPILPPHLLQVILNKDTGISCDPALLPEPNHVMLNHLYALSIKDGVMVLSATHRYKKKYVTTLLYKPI
OBSERVATION_TYPE: IC50

Value of measured IC50 for the entry COc1ccccc1-c1n[nH]c2nc(N[C@H]3CC[C@H](NS(=O)(=O)CCC(F)(F)F)CC3)nc(OC)c12 [compound 31] : ≥ 20 µM

* * *

Biological target: CAMK1 (Homo sapiens, UniProt Q14012)
Sequence (Q14012 whole entry): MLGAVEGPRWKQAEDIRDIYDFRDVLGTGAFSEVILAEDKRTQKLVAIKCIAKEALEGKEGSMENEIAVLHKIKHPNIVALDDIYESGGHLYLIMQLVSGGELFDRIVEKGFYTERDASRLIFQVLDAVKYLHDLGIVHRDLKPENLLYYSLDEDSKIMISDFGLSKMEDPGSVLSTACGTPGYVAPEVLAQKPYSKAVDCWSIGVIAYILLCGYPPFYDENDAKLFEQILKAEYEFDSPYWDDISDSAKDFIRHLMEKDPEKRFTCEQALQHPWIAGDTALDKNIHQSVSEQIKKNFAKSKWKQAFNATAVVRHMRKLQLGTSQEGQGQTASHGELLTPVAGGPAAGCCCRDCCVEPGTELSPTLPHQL
OBSERVATION_TYPE: IC50

CAMK1 (Homo sapiens, UniProt Q14012) data for `COc1nc(N[C@H]2CC[C@H](NS(=O)(=O)CC(C)C)CC2)nc2[nH]nc(N3CCOC[C@H]3C)c12` ; its IC50: ≥ 20 µM

* * *

Biological target: ERBB4 (Homo sapiens)
Sequence (Q15303 whole entry): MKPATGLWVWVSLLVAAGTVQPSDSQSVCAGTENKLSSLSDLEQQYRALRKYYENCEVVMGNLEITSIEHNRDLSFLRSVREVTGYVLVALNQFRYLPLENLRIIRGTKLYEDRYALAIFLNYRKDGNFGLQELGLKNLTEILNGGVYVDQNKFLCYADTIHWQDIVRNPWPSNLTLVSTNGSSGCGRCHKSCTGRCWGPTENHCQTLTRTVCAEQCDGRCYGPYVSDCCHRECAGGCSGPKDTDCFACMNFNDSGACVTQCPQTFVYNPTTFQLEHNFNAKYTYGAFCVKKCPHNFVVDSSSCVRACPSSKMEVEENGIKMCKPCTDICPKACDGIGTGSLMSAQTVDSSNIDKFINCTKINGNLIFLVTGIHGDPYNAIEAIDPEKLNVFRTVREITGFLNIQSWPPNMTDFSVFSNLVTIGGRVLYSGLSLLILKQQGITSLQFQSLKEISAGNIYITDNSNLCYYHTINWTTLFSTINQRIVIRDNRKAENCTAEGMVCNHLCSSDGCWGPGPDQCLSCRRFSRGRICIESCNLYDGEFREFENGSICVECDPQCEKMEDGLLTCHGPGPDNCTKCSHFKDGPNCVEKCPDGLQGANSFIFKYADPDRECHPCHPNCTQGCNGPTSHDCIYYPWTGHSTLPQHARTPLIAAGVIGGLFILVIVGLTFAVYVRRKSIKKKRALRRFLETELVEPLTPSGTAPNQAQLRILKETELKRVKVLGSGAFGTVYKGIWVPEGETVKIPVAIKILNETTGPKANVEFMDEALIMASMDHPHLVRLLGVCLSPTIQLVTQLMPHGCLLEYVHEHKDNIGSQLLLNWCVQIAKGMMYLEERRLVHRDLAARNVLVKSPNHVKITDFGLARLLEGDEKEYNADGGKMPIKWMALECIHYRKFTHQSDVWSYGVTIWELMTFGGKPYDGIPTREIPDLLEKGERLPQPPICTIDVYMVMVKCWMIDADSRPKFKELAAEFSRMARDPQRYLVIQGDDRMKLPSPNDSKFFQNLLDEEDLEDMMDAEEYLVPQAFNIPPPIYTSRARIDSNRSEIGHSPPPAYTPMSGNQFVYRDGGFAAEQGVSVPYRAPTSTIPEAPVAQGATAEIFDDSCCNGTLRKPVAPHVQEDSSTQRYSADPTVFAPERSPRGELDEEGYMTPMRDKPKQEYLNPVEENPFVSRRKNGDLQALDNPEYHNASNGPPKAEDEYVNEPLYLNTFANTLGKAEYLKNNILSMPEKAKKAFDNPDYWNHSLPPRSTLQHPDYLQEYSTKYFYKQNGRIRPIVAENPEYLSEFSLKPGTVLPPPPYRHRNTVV
pIC50: −log10 of the molar value.
OBSERVATION_TYPE: pIC50

pIC50 reported for this compound `COc1ccccc1-c1n[nH]c2nc(N[C@H]3CC[C@H](NS(=O)(=O)CCC(F)(F)F)CC3)nc(OC)c12` : ≤ 4.70

* * *

Target: NRK (Homo sapiens, UniProt Q7Z2Y5)
Test: biochemical
Parameters: species or system HEK293/K-562/placenta mixed human extract; Kinobeads chemoproteomic competition binding, quantified by TMT LC-MS/MS, dose response up to 20 uM
OBSERVATION_TYPE: IC50

IC50 measured on `COc1nc(N[C@H]2CC[C@H](NS(=O)(=O)CC(C)C)CC2)nc2[nH]nc(N3CCOC[C@H]3C)c12` = ≥ 20 µM
